Data credit: patent US20160297884A1

Recorded log10 of kon by entry
experimental_system: T1, Human BCMA (human, UniProt Q02223 1-54, limits assumed)
T1 construct: also called huBCMA; B-cell maturation antigen
T1 sequence (looked up): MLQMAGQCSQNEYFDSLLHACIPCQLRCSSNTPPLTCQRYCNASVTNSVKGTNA
measurement_protocol: SPR, IgG immobilised, human BCMA analyte
Values below are the log10 of the recorded kon, with M⁻¹ s⁻¹ as the unit.

[[record]]
binder = "COMBO_Rd4_0.6nM_C30 (antibody, V domains shown, IgG) VH: EVQLLESGGGLVQPGGSLRLSCAASGFTFSSYPMSWVRQAPGKGLEWVSAIGGSGGSTYYADSVKGRFTISRDNSKNTLYLQMNSLRAEDTAVYYCARYWPMDSWGQGTLVTVSS VL: EIVLTQSPGTLSLSPGERATLSCRASQSVSYMYLAWYQQKPGQAPRLLIYDASIRATGIPDRFSGSGSGTDFTLTISRLEPEDFAVYYCQQYKSWPLTFGQGTKVEIK"
result_number = 6.64


What value of measured log10 of kon is listed for COMBO_Rd4_6nM_C02 (antibody, V domains shown, IgG) VH: EVQLLESGGGLVQPGGSLRLSCAASGFTFSSYAMNWVRQAPGKGLEWVSAISDSGGFVYYADSVKGRFTISRDNSKNTLYLQMNSLRAEDTAVYYCARYWPMDSWGQGTLVTVSS VL: EIVLTQSPGTLSLSPGERATLSCRASQSVSSSYLAWYQQKPGQAPRLLMYDASIRATGIPDRFSGSGSGTDFTLTISRLEPEDFAVYYCQQYEFWPLTFGQGTKVEIK ?
6.02

One more binder: COMBO_Rd4_6nM_C10 (antibody, V domains shown, IgG) VH: EVQLLESGGGLVQPGGSLRLSCAASGFTFSSYPMSWVRQAPGKGLEWVSAIGGSGGSIHYADSVKGRFTISRDNSKNTLYLQMNSLRAEDTAVYYCARYWPMDSWGQGTLVTVSS VL: EIVLTQSPGTLSLSPGERATLSCRASQSVSSSYWGWYQQKPGQAPRLLMYDASIRATGIPDRFSGSGSGTDFTLTISRLEPEDFAVYYCQQYQCWPLTFGQGTKVEIK
6.74

Another binder to check: A02_Rd4_0.6nM_C01 (antibody, V domains shown, IgG; also called P5AC1) VH: EVQLLESGGGLVQPGGSLRLSCAASGFTFSSYAMNWVRQAPGKGLEWVSAILSSGGSTYYADSVKGRFTISRDNSKNTLYLQMNSLRAEDTAVYYCARYWPMDIWGQGTLVTVSS VL: EIVLTQSPGTLSLSPGERATLSCRGGQSVSSSYLAWYQQKPGQAPRLLMYDASIRATGIPDRFSGSGSGTDFTLTISRLEPEDFAVYYCQQYQSWPLTFGQGTKVEIK
6.68

And COMBO_Rd4_0.6nM_C09 (antibody, V domains shown, IgG) VH: EVQLLESGGGLVQPGGSLRLSCAASGFTFSSYPMSWVRQAPGKGLEWVSAIGGSGGSLPYADSVKGRFTISRDNSKNTLYLQMNSLRAEDTAVYYCARYWPMDIWGQGTLVTVSS VL: EIVLTQSPGTLSLSPGERATLSCRASQSVSSTYLAWYQQKPGQAPRLLMYDASIRATGIPDRFSGSGSGTDFTLTISRLEPEDFAVYYCQQYQEWPLTFGQGTKVEIK ?
7.02

Then COMBO_Rd4_0.6nM_C05 (antibody, V domains shown, IgG) VH: EVQLLESGGGLVQPGGSLRLSCAASGFTFSSYAMNWVRQAPGKGLEWVSAIGGSGGSTYYADSVKGRFTISRDNSKNTLYLQMNSLRAEDTAVYYCARYWPMSLWGQGTLVTVSS VL: EIVLTQSPGTLSLSPGERATLSCRASQSVSSTYLAWYQQKPGQAPRLLMYDASIRATGIPDRFSGSGSGTDFTLTISRLEPEDFAVYYCQQYMSWPLTFGQGTKVEIK ?
6.64

Queued: COMBO_Rd4_0.6nM_C22 (antibody, V domains shown, IgG; also called COM22) VH: EVQLLESGGGLVQPGGSLRLSCAASGFTFSSYAMNWVRQAPGKGLEWVSAISDSGGSRWYADSVKGRFTISRDNSKNTLYLQMNSLRAEDTAVYYCTRYWPMDIWGQGTLVTVSS VL: EIVLTQSPGTLSLSPGERATLSCRASVRVSSTYLAWYQQKPGQAPRLLMYDASIRATGIPDRFSGSGSGTDFTLTISRLEPEDFAVYYCQQYMKWPLTFGQGTKVEIK
6.29

Field entry: COMBO_Rd4_0.6nM_C04 (antibody, V domains shown, IgG) VH: EVQLLESGGGLVQPGGSLRLSCAASGFTFSSYPMSWVRQAPGKGLEWVSAHIGSGGSTYYADSVKGRFTISRDNSKNTLYLQMNSLRAEDTAVYYCARYWPMDSWGQGTLVTVSS VL: EIVLTQSPGTLSLSPGERATLSCRASQSVSSTYLAWYQQKPGQAPRLLMYDASIRATGIPDRFSGSGSGTDFTLTISRLEPEDFAVYYCQQYQSWPLTFGQGTKVEIK
7.03

Check C01_Rd4_6nM_C10 (antibody, V domains shown, IgG) VH: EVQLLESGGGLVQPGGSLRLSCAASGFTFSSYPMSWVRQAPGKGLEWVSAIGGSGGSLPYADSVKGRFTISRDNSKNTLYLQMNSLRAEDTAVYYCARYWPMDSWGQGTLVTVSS VL: EIVLTQSPGTLSLSPGERATLSCRASQSVSSVYLAWYQQKPGQAPRLLIYDASSRAPGIPDRFSGSGSGTDFTLTISRLEPEDFAVYYCQQYSTWPLTFGQGTKVEIK too.
7.12

How about A02_Rd4_6nM_C08 (antibody, V domains shown, IgG) VH: EVQLLESGGGLVQPGGSLRLSCAASGFTFSSYAMNWVRQAPGKGLEWVSAILDSGGSTYYADSVKGRFTISRDNSKNTLYLQMNSLRAEDTAVYYCARYWPMSPWGQGTLVTVSS VL: EIVLTQSPGTLSLSPGERATLSCRASQSVSFLYLAWYQQKPGQAPRLLMYDASIRATGIPDRFSGSGSGTDFTLTISRLEPEDFAVYYCQQYGSWPLTFGQGTKVEIK ?
6.59
